Tested on: P. aeruginosa NMI 7197/19
Format: cell-based, Pseudomonas aeruginosa
Experimental conditions: NMI 7197/19, 20 h
The reader will find reported MIC, P. aeruginosa NMI 7197/19 values listed item by item below.

>  <Compound>
NCCCC[C@H](NC(=O)CCN(Cc1ccc(F)cc1)C(=O)[C@H](CCCCN)NC(=O)CCN(Cc1ccc(F)cc1)C(=O)[C@H](CCCCN)NC(=O)CCN(Cc1ccc(F)cc1)C(=O)[C@H](CCCCN)NC(=O)CCN(Cc1ccc(F)cc1)C(=O)[C@H](CCCCN)NC(=O)CCN(Cc1ccc(F)cc1)C(=O)[C@H](CCCCN)NC(=O)CCOCCOCCOCCOCCN)C(=O)N(CCC(=O)NCCOCCOCCOCCOCCC(N)=O)Cc1ccc(F)cc1 [Compound 5, H-sPEG4-[X]6-sPEG4-NH2]

>  <MIC, P. aeruginosa NMI 7197/19>
>64 µg/mL

$$$$
>  <Compound>
NCCCC[C@H](NC(=O)CCN(Cc1ccc(F)cc1)C(=O)[C@H](CCCCN)NC(=O)CCN(Cc1ccc(F)cc1)C(=O)[C@H](CCCCN)NC(=O)CCOCCOCCOCCOCCNC(=O)CCN(Cc1ccc(F)cc1)C(=O)[C@H](CCCCN)NC(=O)CCN(Cc1ccc(F)cc1)C(=O)[C@H](CCCCN)NC(=O)CCN(Cc1ccc(F)cc1)C(=O)[C@@H](N)CCCCN)C(=O)N(CCC(N)=O)Cc1ccc(F)cc1 [Compound 9, H-[X]3-sPEG4-[X]3-NH2]

>  <MIC, P. aeruginosa NMI 7197/19>
>64 µg/mL

$$$$

====

Protocol text: Hydrophobicity by retention in analytical RP-HPLC (% MeCN at peak elution)
Format: physicochemical
Experimental conditions: Phenomenex Luna Omega Polar C18 column; gradient 0→60% B during 15 min
Result type: % MeCN at Elution, Luna Omega (% MeCN)

>  <Compound>
NCCCC[C@H](NC(=O)CCN(Cc1ccc(F)cc1)C(=O)[C@H](CCCCN)NC(=O)CCN(Cc1ccc(F)cc1)C(=O)[C@H](CCCCN)NC(=O)CCOCCOCCOCCOCCOCCOCCNC(=O)CCN(Cc1ccc(F)cc1)C(=O)[C@H](CCCCN)NC(=O)CCN(Cc1ccc(F)cc1)C(=O)[C@H](CCCCN)NC(=O)CCN(Cc1ccc(F)cc1)C(=O)[C@@H](N)CCCCN)C(=O)N(CCC(N)=O)Cc1ccc(F)cc1 [Compound 10, H-[X]3-sPEG6-[X]3-NH2]

>  <Experimental result>
42.8

$$$$
>  <Compound>
NCCCC[C@H](NC(=O)CCN(Cc1ccc(F)cc1)C(=O)[C@H](CCCCN)NC(=O)COCCOCCNC(=O)CCN(Cc1ccc(F)cc1)C(=O)[C@H](CCCCN)NC(=O)CCN(Cc1ccc(F)cc1)C(=O)[C@H](CCCCN)NC(=O)COCCOCCNC(=O)CCN(Cc1ccc(F)cc1)C(=O)[C@H](CCCCN)NC(=O)CCN(Cc1ccc(F)cc1)C(=O)[C@@H](N)CCCCN)C(=O)N(CCC(N)=O)Cc1ccc(F)cc1 [Compound 16, H-[X]2-sPEG2-[X]2-sPEG2-[X]2-NH2]

>  <Experimental result>
41.9

$$$$
>  <Compound>
NCCCC[C@H](NC(=O)CCN(Cc1ccc(F)cc1)C(=O)[C@H](CCCCN)NC(=O)CCN(Cc1ccc(F)cc1)C(=O)[C@H](CCCCN)NC(=O)CCN(Cc1ccc(F)cc1)C(=O)[C@H](CCCCN)NC(=O)CCN(Cc1ccc(F)cc1)C(=O)[C@H](CCCCN)NC(=O)CCN(Cc1ccc(F)cc1)C(=O)[C@@H](N)CCCCN)C(=O)N(CCC(N)=O)Cc1ccc(F)cc1 [Compound 1, H-[Lys-βNPhe(4-F)]6-NH2]

>  <Experimental result>
41.9

$$$$
>  <Compound>
NCCCC[C@H](NC(=O)CCN(Cc1ccc(F)cc1)C(=O)[C@H](CCCCN)NC(=O)CCN(Cc1ccc(F)cc1)C(=O)[C@H](CCCCN)NC(=O)CCN(Cc1ccc(F)cc1)C(=O)[C@H](CCCCN)NC(=O)CCN(Cc1ccc(F)cc1)C(=O)[C@H](CCCCN)NC(=O)CCN(Cc1ccc(F)cc1)C(=O)[C@H](CCCCN)NC(=O)COCCOCCN)C(=O)N(CCC(N)=O)Cc1ccc(F)cc1 [Compound 2, H-sPEG2-[X]6-NH2]

>  <Experimental result>
41.9

$$$$
>  <Compound>
NCCCC[C@H](NC(=O)CCN(Cc1ccc(F)cc1)C(=O)[C@H](CCCCN)NC(=O)COCCOCCOCCNC(=O)CCN(Cc1ccc(F)cc1)C(=O)[C@H](CCCCN)NC(=O)CCN(Cc1ccc(F)cc1)C(=O)[C@H](CCCCN)NC(=O)COCCOCCOCCNC(=O)CCN(Cc1ccc(F)cc1)C(=O)[C@H](CCCCN)NC(=O)CCN(Cc1ccc(F)cc1)C(=O)[C@@H](N)CCCCN)C(=O)N(CCC(N)=O)Cc1ccc(F)cc1 [Compound 17, H-[X]2-sPEG3-[X]2-sPEG3-[X]2-NH2]

>  <Experimental result>
42.4

$$$$

From: paper PMC8268887
